test system: Sporothrix; test: Antifungal activity against Sporothrix brasiliensis after 72 hrs by microdilution method; format: functional
measurementKind: MIC50
// unit must come after the numeric part

QUERY: Consider the molecule CC[C@@H]([C@H](C)O)n1ncn(-c2ccc(N3CCN(c4ccc(OC[C@@H]5CO[C@@](Cn6cncn6)(c6ccc(F)cc6F)C5)cc4)CC3)cc2)c1=O [POSACONAZOLE] and give its measured MIC50.
RESULT: 0.5 µg/mL

QUERY: Cool, now C[C@@H]1[C@H](O)[C@@H](C)/C=C/C=C/C=C/C=C/C=C/C=C/C=C/[C@H](O[C@@H]2O[C@H](C)[C@@H](O)[C@H](N)[C@@H]2O)C[C@@H]2O[C@](O)(C[C@@H](O)C[C@@H](O)[C@H](O)CC[C@@H](O)C[C@@H](O)CC(=O)O[C@H]1C)C[C@H](O)[C@H]2C(=O)O [AMPHOTERICIN B]
RESULT: 2 µg/mL

QUERY: Cool, now Nc1nc(=O)[nH]cc1F [FLUCYTOSINE]
RESULT: 16 µg/mL

Required: MIC50, one value per molecule below.
1. C[C@@H](c1nc(-c2ccc(C#N)cc2)cs1)[C@](O)(Cn1cncn1)c1ccc(F)cc1F [RAVUCONAZOLE]
2. Clc1cc(Cl)c2c(c1)CCc1ccccc1C2n1ccnc1 (stereo unspecified) [EBERCONAZOLE]
3. CC(=O)N1CCN(c2ccc(OCC3COC(Cn4ccnc4)(c4ccc(Cl)cc4Cl)O3)cc2)CC1 (stereo unspecified) [KETOCONAZOLE]

RESULT:
["0.5 µg/mL", "0.25 µg/mL", "0.125 µg/mL"]

====

test system: Sporothrix albicans; test: Antifungal activity against Sporothrix albicans after 72 hrs by microdilution method; type: functional
Numbered stars: 1 amine (or outer) side, 2 acyl side, 3 side chain; on linkers, the order of the positions; unused ones are H or OH. Bridge positions count the residues as written; N and C are the ends. Square brackets hold non-standard residues; d marks the D form. Peptide text beside a SMILES is read from it. * marks the point of attachment. hTyr(3S-OH,4S-OH,3'-OSO3H) = N[C@H](C(=O)O)[C@H](O)[C@@H](O)c1ccc(O)c(OS(=O)(=O)O)c1; Orn(4R-OH,5R-OH) = O=C([C@H](C[C@@H](O)[C@@H](O)N[*:3])N[*:1])[*:2]; Pro(3S-OH,4S-Me) = C[C@H]1CN[C@H](C(=O)O)[C@H]1O; X1 = CCCCCOc1ccc(-c2cc(-c3ccc(C(=O)*)cc3)no2)cc1; Gln(3R-OH) = NC(=O)C[C@@H](O)[C@H](N)C(=O)O; Hyp = O=C(O)[C@@H]1C[C@@H](O)CN1
measurementKind: MIC90 (µg/mL)
Give bare numbers, in µg/mL.

Observe how each entry below is paired with its result.
QUERY: Consider the compound C[C@@H](n1cnc2cc(Cl)ccc2c1=O)[C@](O)(Cn1cncn1)c1ccc(F)cc1F and give its measured MIC90.
RESULT: 32

QUERY: Cool, now CC(=O)N1CCN(c2ccc(OCC3COC(Cn4ccnc4)(c4ccc(Cl)cc4Cl)O3)cc2)CC1 (configuration not stated)
RESULT: 4

QUERY: Cool, now CN(C/C=C/C#CC(C)(C)C)Cc1cccc2ccccc12
RESULT: 4

QUERY: Cool, now CCCCCOc1ccc(-c2cc(-c3ccc(C(=O)N[C@H]4C[C@@H](O)[C@@H](O)NC(=O)[C@@H]5[C@@H](O)[C@@H](C)CN5C(=O)[C@H]([C@H](O)CC(N)=O)NC(=O)[C@H]([C@H](O)[C@@H](O)c5ccc(O)c(OS(=O)(=O)O)c5)NC(=O)[C@@H]5C[C@@H](O)CN5C(=O)[C@H]([C@@H](C)O)NC4=O)cc3)no2)cc1 [MICAFUNGIN] (X1-[Orn(4R-OH,5R-OH)]T[Hyp][hTyr(3S-OH,4S-OH,3'-OSO3H)][Gln(3R-OH)][Pro(3S-OH,4S-Me)]; lactam 1-C)
RESULT: 256

QUERY: Cool, now Clc1cc(Cl)c2c(c1)CCc1ccccc1C2n1ccnc1 (configuration not stated)
RESULT: 16

Required: MIC90, one value per compound below.
1. CCC(C)n1ncn(-c2ccc(N3CCN(c4ccc(OCC5COC(Cn6cncn6)(c6ccc(Cl)cc6Cl)O5)cc4)CC3)cc2)c1=O (configuration not stated)
2. OC(Cn1cncn1)(Cn1cncn1)c1ccc(F)cc1F

RESULT:
1. 32
2. 128

====

system: Sporothrix; test: Antifungal activity against Sporothrix brasiliensis after 72 hrs by microdilution method; format: functional
Numbered stars: 1 amine (or outer) side, 2 acyl side, 3 side chain; on linkers, the order of the positions; unused ones are H or OH. Bridge positions count the residues as written; N and C are the ends. Square brackets hold non-standard residues; d marks the D form. Peptide text beside a SMILES is read from it. * marks the point of attachment. hTyr(3S-OH,4S-OH,3'-OSO3H) = N[C@H](C(=O)O)[C@H](O)[C@@H](O)c1ccc(O)c(OS(=O)(=O)O)c1; Orn(4R-OH,5R-OH) = O=C([C@H](C[C@@H](O)[C@@H](O)N[*:3])N[*:1])[*:2]; Pro(3S-OH,4S-Me) = C[C@H]1CN[C@H](C(=O)O)[C@H]1O; X1 = CCCCCOc1ccc(-c2cc(-c3ccc(C(=O)*)cc3)no2)cc1; Gln(3R-OH) = NC(=O)C[C@@H](O)[C@H](N)C(=O)O; Hyp = O=C(O)[C@@H]1C[C@@H](O)CN1
measurementKind: MIC50 (µg/mL)
One number for each entry, in µg/mL.

Observe how each entry below is paired with its result.
QUERY: Consider the molecule C[C@@H](n1cnc2cc(Cl)ccc2c1=O)[C@](O)(Cn1cncn1)c1ccc(F)cc1F [ALBACONAZOLE] and give its measured MIC50.
RESULT: 1

QUERY: Cool, now OC(Cn1cncn1)(Cn1cncn1)c1ccc(F)cc1F [FLUCONAZOLE]
RESULT: 128

Pending molecule:
QUERY: Consider the molecule CCCCCOc1ccc(-c2cc(-c3ccc(C(=O)N[C@H]4C[C@@H](O)[C@@H](O)NC(=O)[C@@H]5[C@@H](O)[C@@H](C)CN5C(=O)[C@H]([C@H](O)CC(N)=O)NC(=O)[C@H]([C@H](O)[C@@H](O)c5ccc(O)c(OS(=O)(=O)O)c5)NC(=O)[C@@H]5C[C@@H](O)CN5C(=O)[C@H]([C@@H](C)O)NC4=O)cc3)no2)cc1 [MICAFUNGIN] (X1-[Orn(4R-OH,5R-OH)]T[Hyp][hTyr(3S-OH,4S-OH,3'-OSO3H)][Gln(3R-OH)][Pro(3S-OH,4S-Me)]; lactam 1-C) and give its measured MIC50.
RESULT: 256

====

system: Sporothrix; assay: Antifungal activity against Sporothrix mexicana after 72 hrs by microdilution method; format: functional
measurementKind: MIC
// unit must come after the numeric part

QUERY: Consider the molecule CC[C@@H]([C@H](C)O)n1ncn(-c2ccc(N3CCN(c4ccc(OC[C@@H]5CO[C@@](Cn6cncn6)(c6ccc(F)cc6F)C5)cc4)CC3)cc2)c1=O and give its measured MIC.
RESULT: 32 µg/mL

Required: MIC, one value per molecule below.
1. C[C@@H](c1nc(-c2ccc(C#N)cc2)cs1)[C@](O)(Cn1cncn1)c1ccc(F)cc1F
2. CCC(C)n1ncn(-c2ccc(N3CCN(c4ccc(OCC5COC(Cn6cncn6)(c6ccc(Cl)cc6Cl)O5)cc4)CC3)cc2)c1=O (configuration not stated)
3. CN(C/C=C/C#CC(C)(C)C)Cc1cccc2ccccc12
4. C[C@@H]1[C@H](O)[C@@H](C)/C=C/C=C/C=C/C=C/C=C/C=C/C=C/[C@H](O[C@@H]2O[C@H](C)[C@@H](O)[C@H](N)[C@@H]2O)C[C@@H]2O[C@](O)(C[C@@H](O)C[C@@H](O)[C@H](O)CC[C@@H](O)C[C@@H](O)CC(=O)O[C@H]1C)C[C@H](O)[C@H]2C(=O)O

RESULT:
["32 µg/mL", "32 µg/mL", "0.5 µg/mL", "16 µg/mL"]

Required: MIC, one value per molecule below.
1. Nc1nc(=O)[nH]cc1F
2. C[C@@H](n1cnc2cc(Cl)ccc2c1=O)[C@](O)(Cn1cncn1)c1ccc(F)cc1F

RESULT:
["128 µg/mL", "32 µg/mL"]

====

test system: Sporothrix; assay: Antifungal activity against Sporothrix brasiliensis after 72 hrs by microdilution method; type: functional
Numbered stars: 1 amine (or outer) side, 2 acyl side, 3 side chain; on linkers, the order of the positions; unused ones are H or OH. Bridge positions count the residues as written; N and C are the ends. Square brackets hold non-standard residues; d marks the D form. Peptide text beside a SMILES is read from it. * marks the point of attachment. hTyr(3S-OH,4S-OH,3'-OSO3H) = N[C@H](C(=O)O)[C@H](O)[C@@H](O)c1ccc(O)c(OS(=O)(=O)O)c1; Orn(4R-OH,5R-OH) = O=C([C@H](C[C@@H](O)[C@@H](O)N[*:3])N[*:1])[*:2]; Pro(3S-OH,4S-Me) = C[C@H]1CN[C@H](C(=O)O)[C@H]1O; X1 = CCCCCOc1ccc(-c2cc(-c3ccc(C(=O)*)cc3)no2)cc1; Gln(3R-OH) = NC(=O)C[C@@H](O)[C@H](N)C(=O)O; Hyp = O=C(O)[C@@H]1C[C@@H](O)CN1
Answer each item with its documented MIC.
Numbers only, in µg/mL.

Observe how each entry below is paired with its result.
QUERY: Consider the molecule CN(C/C=C/C#CC(C)(C)C)Cc1cccc2ccccc12 and give its measured MIC.
RESULT: 0.06

QUERY: Cool, now OC(Cn1cncn1)(Cn1cncn1)c1ccc(F)cc1F
RESULT: 128

QUERY: Cool, now CCC(C)n1ncn(-c2ccc(N3CCN(c4ccc(OCC5COC(Cn6cncn6)(c6ccc(Cl)cc6Cl)O5)cc4)CC3)cc2)c1=O (centres undefined)
RESULT: 0.5

Pending molecule:
QUERY: Consider the molecule CCCCCOc1ccc(-c2cc(-c3ccc(C(=O)N[C@H]4C[C@@H](O)[C@@H](O)NC(=O)[C@@H]5[C@@H](O)[C@@H](C)CN5C(=O)[C@H]([C@H](O)CC(N)=O)NC(=O)[C@H]([C@H](O)[C@@H](O)c5ccc(O)c(OS(=O)(=O)O)c5)NC(=O)[C@@H]5C[C@@H](O)CN5C(=O)[C@H]([C@@H](C)O)NC4=O)cc3)no2)cc1 [MICAFUNGIN] (X1-[Orn(4R-OH,5R-OH)]T[Hyp][hTyr(3S-OH,4S-OH,3'-OSO3H)][Gln(3R-OH)][Pro(3S-OH,4S-Me)]; lactam 1-C) and give its measured MIC.
RESULT: 256

// data source = ChEMBL document CHEMBL1153558
